# study.system: T1, extracellular domain of A. thaliana TDR (residues 30-642) (Arabidopsis thaliana, UniProt Q9FII5 30-642, N-glycosylated at N111, N356, N378, N471 and N525 (one GlcNAc visible on each in the structures))
# T1 chain: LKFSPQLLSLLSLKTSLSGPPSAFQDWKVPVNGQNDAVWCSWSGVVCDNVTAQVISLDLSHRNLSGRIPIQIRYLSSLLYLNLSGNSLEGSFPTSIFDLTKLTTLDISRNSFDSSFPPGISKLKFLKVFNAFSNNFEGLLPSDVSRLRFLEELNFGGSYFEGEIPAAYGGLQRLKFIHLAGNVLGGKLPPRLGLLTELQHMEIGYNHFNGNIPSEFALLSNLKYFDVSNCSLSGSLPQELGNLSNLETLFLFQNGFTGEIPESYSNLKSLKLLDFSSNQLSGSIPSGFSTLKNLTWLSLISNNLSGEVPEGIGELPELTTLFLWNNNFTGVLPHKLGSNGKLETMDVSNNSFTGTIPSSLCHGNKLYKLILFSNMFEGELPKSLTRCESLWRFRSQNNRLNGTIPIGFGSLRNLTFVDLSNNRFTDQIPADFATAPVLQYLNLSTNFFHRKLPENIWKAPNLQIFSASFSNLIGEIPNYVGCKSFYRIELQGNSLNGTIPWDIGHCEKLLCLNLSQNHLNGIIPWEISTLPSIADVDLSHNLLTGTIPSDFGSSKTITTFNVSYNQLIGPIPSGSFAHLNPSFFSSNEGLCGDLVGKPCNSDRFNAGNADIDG
# test.name: ITC
observed.property: pKd
Formally, pKd is defined as -log10 of the concentration c, with c in mol/L.

Task item: What pKd value was documented for this binder, RLVPSGPNPLHN [CLE9 peptide] ?
Reply: 4.99
